target under test: jack bean urease (Canavalia ensiformis)
setup conditions: maximum rate at 20 µM of inhibitor concentration; Lineweaver Burk plot
Entry flag: 1 if Vmax (app) reaches 2 µM/min; 0 if it does not.

Prompt: Check the entry COc1ccc2cc([C@H](C)C(=O)Nc3ccc(S(=O)(=O)Nc4nccc(C)n4)cc3)ccc2c1 [Conjugate 7] : does Vmax (app) equal or exceed 2 µM/min?
Completion: 0

Prompt: Check the entry COc1ccc2cc([C@H](C)C(=O)Nc3ccc(S(N)(=O)=O)cc3)ccc2c1 [Conjugate 3] : does Vmax (app) equal or exceed 2 µM/min?
Completion: 1

Prompt: Check the entry COc1ccc2cc([C@H](C)C(=O)Nc3ccc(S(=O)(=O)NC(C)=O)cc3)ccc2c1 [Conjugate 9] : does Vmax (app) equal or exceed 2 µM/min?
Completion: 0

Prompt: Check the entry COc1ccc2cc([C@H](C)C(=O)Nc3ccc(S(=O)(=O)Nc4nccs4)cc3)ccc2c1 [Conjugate 5] : does Vmax (app) equal or exceed 2 µM/min?
Completion: 0

Prompt: Check the entry NC(N)=S [Thiourea, reference compound] : does Vmax (app) equal or exceed 2 µM/min?
Completion: 1

Prompt: Check the entry COc1ccc2cc([C@H](C)C(=O)Nc3ccc(S(=O)(=O)Nc4ncccn4)cc3)ccc2c1 [Conjugate 6] : does Vmax (app) equal or exceed 2 µM/min?
Completion: 0

* * *

System: carrageenan-induced acute inflammation in mice
assay method text: Carrageenan-induced paw edema anti-inflammatory study
Format: in vivo
setup conditions: 2 h, 10 mg/kg intraperitoneally, n = 6
Entry flag: true if % inhibition of paw edema reaches 50%; false if it does not.

Some entries whose results are on file:
molecule	label class
COc1ccc2cc([C@H](C)C(=O)O)ccc2c1 [Naproxen, reference compound]	false
COc1ccc2c(c1)c(CC(=O)O)c(C)n2C(=O)c1ccc(Cl)cc1 [Indomethacin, reference compound]	true
COc1ccc2cc([C@H](C)C(=O)Nc3ccc(S(=O)(=O)Nc4cc(C)on4)cc3)ccc2c1 [Conjugate 8]	false

Prompt: Check the entry COc1ccc2cc([C@H](C)C(=O)Nc3ccc(S(=O)(=O)Nc4onc(C)c4C)cc3)ccc2c1 [Conjugate 4] : does % inhibition of paw edema equal or exceed 50%?
Completion: false

Prompt: Check the entry COc1ccc2cc([C@H](C)C(=O)Nc3ccc(S(=O)(=O)Nc4nccs4)cc3)ccc2c1 [Conjugate 5] : does % inhibition of paw edema equal or exceed 50%?
Completion: false

* * *

target under test: jack bean urease (Canavalia ensiformis)
assay method text: biochemical
result type: Ki (µM)
Give bare numbers, in µM.

compound	target under test	display unit	Ki
COc1ccc2cc([C@H](C)C(=O)Nc3ccc(S(N)(=O)=O)cc3)ccc2c1 [Conjugate 3]	jack bean urease (Canavalia ensiformis)	µM	2.4
COc1ccc2cc([C@H](C)C(=O)Nc3ccc(S(=O)(=O)Nc4nccc(C)n4)cc3)ccc2c1 [Conjugate 7]	jack bean urease (Canavalia ensiformis)	µM	9.98
COc1ccc2cc([C@H](C)C(=O)Nc3ccc(S(=O)(=O)Nc4nccs4)cc3)ccc2c1 [Conjugate 5]	jack bean urease (Canavalia ensiformis)	µM	5.05
COc1ccc2cc([C@H](C)C(=O)Nc3ccc(S(=O)(=O)NC(=N)N)cc3)ccc2c1 [Conjugate 10]	jack bean urease (Canavalia ensiformis)	µM	3.56
COc1ccc2cc([C@H](C)C(=O)Nc3ccc(S(=O)(=O)Nc4ncccn4)cc3)ccc2c1 [Conjugate 6]	jack bean urease (Canavalia ensiformis)	µM	5.58

Pending compound:
Prompt: Lab note: record Ki of COc1ccc2cc([C@H](C)C(=O)Nc3ccc(S(=O)(=O)NC(C)=O)cc3)ccc2c1 [Conjugate 9] tested on jack bean urease (Canavalia ensiformis).
Completion: 2.61

* * *

target under test: jack bean urease (Canavalia ensiformis, UniProt P07374)
Sequence (P07374 whole entry, looked up): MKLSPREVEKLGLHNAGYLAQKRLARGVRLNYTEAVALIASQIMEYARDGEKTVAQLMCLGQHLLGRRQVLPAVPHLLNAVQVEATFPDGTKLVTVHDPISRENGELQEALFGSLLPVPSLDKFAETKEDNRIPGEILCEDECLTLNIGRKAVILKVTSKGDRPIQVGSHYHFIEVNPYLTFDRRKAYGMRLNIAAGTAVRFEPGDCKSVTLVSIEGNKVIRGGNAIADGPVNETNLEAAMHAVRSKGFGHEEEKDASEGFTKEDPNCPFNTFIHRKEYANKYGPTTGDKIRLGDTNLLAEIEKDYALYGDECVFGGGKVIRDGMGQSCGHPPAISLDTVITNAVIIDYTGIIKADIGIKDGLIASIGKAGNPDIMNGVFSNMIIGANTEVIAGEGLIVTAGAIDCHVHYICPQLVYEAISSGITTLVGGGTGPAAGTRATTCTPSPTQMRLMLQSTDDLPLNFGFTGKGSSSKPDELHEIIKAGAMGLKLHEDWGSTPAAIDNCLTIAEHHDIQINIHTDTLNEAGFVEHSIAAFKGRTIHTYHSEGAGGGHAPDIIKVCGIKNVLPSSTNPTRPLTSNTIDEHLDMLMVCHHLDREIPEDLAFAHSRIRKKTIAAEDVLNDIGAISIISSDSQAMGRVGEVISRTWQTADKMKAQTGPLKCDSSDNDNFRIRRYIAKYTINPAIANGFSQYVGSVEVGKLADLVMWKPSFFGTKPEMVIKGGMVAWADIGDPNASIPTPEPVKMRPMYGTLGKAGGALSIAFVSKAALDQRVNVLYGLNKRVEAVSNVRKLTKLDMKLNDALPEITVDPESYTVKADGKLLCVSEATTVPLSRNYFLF
setup conditions: urea 0.5-4.0 mM, inhibitor 0-20 µM
result type: Mode of inhibition

molecule	reading
COc1ccc2cc([C@H](C)C(=O)Nc3ccc(S(=O)(=O)Nc4ncccn4)cc3)ccc2c1 [Conjugate 6]	Mixed
COc1ccc2cc([C@H](C)C(=O)Nc3ccc(S(N)(=O)=O)cc3)ccc2c1 [Conjugate 3]	Competitive
NC(N)=S [Thiourea, reference compound]	Competitive
COc1ccc2cc([C@H](C)C(=O)Nc3ccc(S(=O)(=O)NC(C)=O)cc3)ccc2c1 [Conjugate 9]	Mixed
COc1ccc2cc([C@H](C)C(=O)Nc3ccc(S(=O)(=O)Nc4nccs4)cc3)ccc2c1 [Conjugate 5]	Competitive
COc1ccc2cc([C@H](C)C(=O)Nc3ccc(S(=O)(=O)Nc4nccc(C)n4)cc3)ccc2c1 [Conjugate 7]	Mixed

Prompt: Note down Mode of inhibition recorded for COc1ccc2cc([C@H](C)C(=O)Nc3ccc(S(=O)(=O)NC(=N)N)cc3)ccc2c1 [Conjugate 10]
Completion: Competitive

* * *

Hi there, I'd appreciate the recorded melting point for every entry that follows.

compound	result type	reading
COc1ccc2cc([C@H](C)C(=O)Nc3ccc(S(N)(=O)=O)cc3)ccc2c1 [Conjugate 3]	melting point	208 to 210 °C
COc1ccc2cc([C@H](C)C(=O)Nc3ccc(S(=O)(=O)Nc4nccs4)cc3)ccc2c1 [Conjugate 5]	melting point	184 to 185 °C
COc1ccc2cc([C@H](C)C(=O)Nc3ccc(S(=O)(=O)NC(C)=O)cc3)ccc2c1 [Conjugate 9]	melting point	138 to 140 °C

Prompt: Note down melting point recorded for COc1ccc2cc([C@H](C)C(=O)Nc3ccc(S(=O)(=O)Nc4nccc(C)n4)cc3)ccc2c1 [Conjugate 7]
Completion: 160 to 162 °C

* * *

System: carrageenan-induced acute inflammation in mice
assay method text: Carrageenan-induced paw edema anti-inflammatory study
Assay type: in vivo
setup conditions: 2 h, 10 mg/kg intraperitoneally, n = 6
result type: Paw edema in mm (mean ± SEM) (mm)
Numbers only, in mm.

compound	Paw edema in mm (mean ± SEM), mm
COc1ccc2cc([C@H](C)C(=O)Nc3ccc(S(=O)(=O)Nc4cc(C)on4)cc3)ccc2c1 [Conjugate 8]	2.51
COc1ccc2cc([C@H](C)C(=O)Nc3ccc(S(=O)(=O)Nc4nccs4)cc3)ccc2c1 [Conjugate 5]	2.57
COc1ccc2cc([C@H](C)C(=O)O)ccc2c1 [Naproxen, reference compound]	2.53
COc1ccc2cc([C@H](C)C(=O)Nc3ccc(S(=O)(=O)Nc4onc(C)c4C)cc3)ccc2c1 [Conjugate 4]	2.53

Pending compound:
Prompt: Note down Paw edema in mm (mean ± SEM) recorded for COc1ccc2c(c1)c(CC(=O)O)c(C)n2C(=O)c1ccc(Cl)cc1 [Indomethacin, reference compound]
Completion: 2.41

* * *

Hi there, I'd appreciate the recorded % inhibition of urease for every entry that follows.
target under test: UniProtKB P07374
setup conditions: value in parentheses beside IC50, n = 3; concentration not given
One number for each entry, in %.

I would be grateful if you could provide % inhibition of urease for each of the following entries.
1. NC(N)=S [Thiourea, reference compound]
2. COc1ccc2cc([C@H](C)C(=O)Nc3ccc(S(=O)(=O)Nc4ncccn4)cc3)ccc2c1 [Conjugate 6]

Completion:
92.3
90.3

I would be grateful if you could provide % inhibition of urease for each of the following entries.
1. COc1ccc2cc([C@H](C)C(=O)Nc3ccc(S(N)(=O)=O)cc3)ccc2c1 [Conjugate 3]
2. COc1ccc2cc([C@H](C)C(=O)Nc3ccc(S(=O)(=O)Nc4nccs4)cc3)ccc2c1 [Conjugate 5]
3. COc1ccc2cc([C@H](C)C(=O)Nc3ccc(S(=O)(=O)Nc4cc(C)on4)cc3)ccc2c1 [Conjugate 8]
4. COc1ccc2cc([C@H](C)C(=O)Nc3ccc(S(=O)(=O)NC(=N)N)cc3)ccc2c1 [Conjugate 10]

Completion:
89.4
88.9
87.6
89.1

Values compiled from paper PMC10434765.
